SYSTEM: Adenosine receptor A3 (Homo sapiens) (UniProt P0DMS8)
Sequence (P0DMS8 whole entry): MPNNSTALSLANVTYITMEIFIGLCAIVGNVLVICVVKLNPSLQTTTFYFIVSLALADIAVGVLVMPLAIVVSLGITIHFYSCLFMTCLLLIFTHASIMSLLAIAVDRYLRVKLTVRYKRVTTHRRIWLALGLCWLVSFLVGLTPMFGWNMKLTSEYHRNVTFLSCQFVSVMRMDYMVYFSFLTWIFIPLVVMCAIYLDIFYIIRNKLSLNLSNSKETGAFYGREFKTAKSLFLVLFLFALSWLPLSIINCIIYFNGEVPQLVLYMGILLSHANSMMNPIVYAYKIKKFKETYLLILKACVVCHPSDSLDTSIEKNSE
ASSAY_OVERVIEW: Agonist activity at human recombinant adenosine A3 receptor expressed in CHO cells assessed as nonradiaoactive DELFIA Eu-GTP binding treated for 15 mins before addition of Eu-GTP measured after 45 mins by time-resolved fluorometric method relative to Cl-IBMECA
Format: cell-based
Set-up: concentration or dose not given beside the values
MEASURED_PARAMETER: Activity (%)

MOLECULE: CNc1nc(C#Cc2ccccc2)nc2c1ncn2[C@@H]1O[C@H](CO)[C@@H](O)[C@H]1O
QUANTITATIVE_RESULT: 65
//
MOLECULE: CNC(=O)[C@H]1O[C@@H](n2cnc3c(NC)nc(C#Cc4ccc(F)cc4)nc32)[C@H](O)[C@@H]1O
QUANTITATIVE_RESULT: 100
//
MOLECULE: CNC(=O)[C@H]1O[C@@H](n2cnc3c(NOC)nc(C#Cc4ccccn4)nc32)[C@H](O)[C@@H]1O
QUANTITATIVE_RESULT: 100
//
MOLECULE: CONc1nc(C#Cc2ccccc2)nc2c1ncn2[C@@H]1O[C@H](CO)[C@@H](O)[C@H]1O
QUANTITATIVE_RESULT: 55
//
MOLECULE: CONc1nc(C#Cc2ccccn2)nc2c1ncn2[C@@H]1O[C@H](CO)[C@@H](O)[C@H]1O
QUANTITATIVE_RESULT: 9
//
MOLECULE: CNC(=O)[C@H]1O[C@@H](n2cnc3c(NOC)nc(C#Cc4ccccc4)nc32)[C@H](O)[C@@H]1O
QUANTITATIVE_RESULT: 100
//
MOLECULE: CNC(=O)[C@H]1O[C@@H](n2cnc3c(NOC)nc(C#Cc4ccc(F)cc4)nc32)[C@H](O)[C@@H]1O
QUANTITATIVE_RESULT: 100
//
MOLECULE: CNC(=O)[C@H]1O[C@@H](n2cnc3c(NC)nc(C#Cc4ccccc4)nc32)[C@H](O)[C@@H]1O
QUANTITATIVE_RESULT: 100
//
MOLECULE: CNC(=O)[C@H]1O[C@@H](n2cnc3c(NC)nc(C#Cc4ccccn4)nc32)[C@H](O)[C@@H]1O
QUANTITATIVE_RESULT: 100

====

SYSTEM: Adenosine receptor A1 (Homo sapiens, UniProt P30542)
Sequence (P30542 whole entry): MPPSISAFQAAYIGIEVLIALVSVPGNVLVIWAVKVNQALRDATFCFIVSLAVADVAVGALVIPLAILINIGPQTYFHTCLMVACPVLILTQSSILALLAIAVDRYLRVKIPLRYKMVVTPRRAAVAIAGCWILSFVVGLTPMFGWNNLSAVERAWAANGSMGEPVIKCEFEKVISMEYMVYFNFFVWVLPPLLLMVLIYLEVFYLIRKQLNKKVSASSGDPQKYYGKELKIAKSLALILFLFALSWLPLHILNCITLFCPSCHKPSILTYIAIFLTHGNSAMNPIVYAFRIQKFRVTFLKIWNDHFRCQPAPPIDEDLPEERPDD
ASSAY_OVERVIEW: Displacement of [3H]CCPA from human recombinant adenosine A1 receptor expressed in CHO cells
Reported Ki values for a set of compounds

MOLECULE: CNC(=O)[C@H]1O[C@@H](n2cnc3c(NC)nc(C#Cc4ccc(F)cc4)nc32)[C@H](O)[C@@H]1O
UNITS_OF_MEASURE: µM
Ki: 5.31

MOLECULE: CNC(=O)[C@H]1O[C@@H](n2cnc3c(NC)nc(C#Cc4ccccc4)nc32)[C@H](O)[C@@H]1O
UNITS_OF_MEASURE: µM
Ki: 32.8

MOLECULE: CNC(=O)[C@H]1O[C@@H](n2cnc3c(NC)nc(C#Cc4ccccn4)nc32)[C@H](O)[C@@H]1O
UNITS_OF_MEASURE: µM
Ki: 8.74

====

Species on record: Homo sapiens
ASSAY_OVERVIEW: Selectivity ratio of Ki for human recombinant adenosine A2A receptor to Ki for human recombinant adenosine A3 receptor
Catalogue of compounds with associated Ratio Ki
MEASURED_PARAMETER: Ratio Ki

MOLECULE: CNC(=O)[C@H]1O[C@@H](n2cnc3c(NC)nc(C#Cc4ccccc4)nc32)[C@H](O)[C@@H]1O
QUANTITATIVE_RESULT: 97000
//
MOLECULE: CNC(=O)[C@H]1O[C@@H](n2cnc3c(NOC)nc(C#Cc4ccccc4)nc32)[C@H](O)[C@@H]1O
QUANTITATIVE_RESULT: 8600
//
MOLECULE: CONc1nc(C#Cc2ccccc2)nc2c1ncn2[C@@H]1O[C@H](CO)[C@@H](O)[C@H]1O
QUANTITATIVE_RESULT: 1100
//
MOLECULE: CNc1nc(C#Cc2ccccc2)nc2c1ncn2[C@@H]1O[C@H](CO)[C@@H](O)[C@H]1O
QUANTITATIVE_RESULT: 2500
